# credit: the supplement of paper PMC9170038

system: MS2 coat protein; assay: apparent KD of MS2 coat protein; designed switch direction (-1 OFF switch, 1 ON switch): -1; higher = weaker reporter binding; settings: Eterna round: R95; input ligand: FMN 200 uM
# apparent KD of MS2 coat protein per entry

CONSTRUCT SEQUENCE | apparent KD of MS2 coat protein (µM)
AAAAAGACAGGAUAUACAUGAGGAUCACCCAUGUGAAACAAAAUAAAAUAAAAUAAAAGUAGAAGGGUCAAAAA [Exclusion 3 #2] (puzzle: Exclusion 3) | 0.0338
AAGAAACGAGGAUAUACAAUUAAGUGAGAGAGGGAAAUGUGACAUGAGGAUCACCCAUGUAGAAGGCGUAAGAG [JR_Exclu2_Sub084] (puzzle: Exclusion 2) | 0.0662
GAGAAGGUAGGAUAUACGAAUAAAAAGGGUAGAAUAAGAACACAUGAGGAUCACCCAUGUAGAAGGACCAAGAG [Mat - Exclusion 2 - Mod of my Tesla design - D21] (puzzle: Exclusion 2) | 0.0328

###

test system: MS2 coat protein; assay: apparent KD of MS2 coat protein; designed switch direction (-1 OFF switch, 1 ON switch): -1; higher = weaker reporter binding; conditions: input ligand: microRNA oligo, concentration not stated
Categorized via apparent KD of MS2 coat protein: c1: < 20 nM; c2: ≥ 20 nM and < 50 nM; c3: ≥ 50 nM

CONSTRUCT SEQUENCE | GROUP
GCUCGUGGGCAAGGAUAUCCUACGCUGUUCUGGUUCGUGUCUGUCACAUGAGGAUCACCCAUGUGGGAGAAGGUGCACCAGGGU [Design 51] (Eterna round: R96, puzzle: Exclusion NG 2) | c1
AAAAUAAAGAUAGGAUAUGCAGUAUAGCAAGAUCCGGACAUGAGGAUCACCCAUGUACUUCGAAAGCAGAAGGAUCAAACAAAA [Zamale] (Eterna round: R96, puzzle: Exclusion NG 2) | c2
GGAGGACGAGCAGGAUAUUUUCACAUGAGGAUCACCCAUGUGUAUUCAGGGUAAUCUUCCGCCGAAAAGAAGGGUUCGGAAGAA [JL ViennaUCT Socedi mod 3] (Eterna round: R96, puzzle: Exclusion NG 2) | c2
AGAUGCUCGAGUCGACAUGAGGAUCACCCAUGUACAGUUAGUGAGGAUAUCUGAGACACAUAGUAGGAGAAGGCGCGAACGUGA [Ex NG3 #14] (Eterna round: R96, puzzle: Exclusion NG 3) | c3
UACAUGAGGAUCACCCAUGUUUUGUCGUGUAUGGUAUUUAUCUAGGAUAUCAAGUUGUUUAUUUAUGAGAAGGAGAAUAUUAAU [JMF's solution 27] (Eterna round: R96, puzzle: Exclusion NG 3) | c2
CAGUCCGUUUGAGGAUAUCUCUGGAUCGCCAUGAGAGAAGGCAAACAUGAGGAUCACCCAUGUGGUACCGACUCAACGUCGACA [Eternabot solution 10] (Eterna round: R96, puzzle: Exclusion NG 1) | c1
GGUCAGAUGGUAGGAUAUCCAUAUCGAGUGACCUUUUCAUAACAUGAGGAUCACCCAUGUCGGUGGGAGAAGGGCCGUACGGCG [salish99_ExNG02_R04_017] (Eterna round: R96, puzzle: Exclusion NG 2) | c3
CACCGUUACAGAGGAUAUGGCACAUGAGGAUCACCCAUGUAAUAAAUGAGAAUUUCGGAUGUAUUCCAGAAGGCUGUAACCGGC [Ostricism 68 - Jieux - Exclusion NG 2] (Eterna round: R96, puzzle: Exclusion NG 2) | c1

###

system: K4 kissing-loop RNA reporter; assay: apparent KD of K4 kissing-loop reporter; higher = weaker reporter binding; settings: Eterna round: R107; input ligand: none;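 further: bound reporter read as fluorescence of individual clusters on recovered sequencing chips by microscopy, with normalized cluster intensities fitted with a binding model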
# apparent KD of K4 kissing-loop reporter per entry
RECORDED ENDPOINT: apparent KD of K4 kissing-loop reporter (nM)

CONSTRUCT SEQUENCE | REPORTED MEASUREMENT
UUUUGCGCGUACGAUACCAGUAUCUGUAAGAGUGAUGUUCAGCGCUGAAGACAGCAGCGAUACCCUUGGCAGCGUUACAUGCUAG [theeternabot_sameState_KL_Theo_B_22] | 553
GGUUCUGGAAUCGAGUGAUGUUCGGUGUUGCAGGAUAUAGAGAGAUCUAGAAGGGCAGUUUGUAUUUUAUUGAGUGAUUUUCUUU [Last Minute #3] | 106
AAUAAAAUCACGGCCGCCACUGAAUAAUUGGUAAGUAGUGAUGUUACUUUACUUUUCUUAUUUAACAGGACCGGGUGAAUAUUUA [JR_ExcTryptoB_Sub009] | 98.5
UAGAGCAUCGCAGGAUAUCCUGCUUAACGUUGGAUUCCAGUGAUGUUGGAAAGCCGGCCUAGGGUAGGAGAAGGGCGGAUUUGAA [Edvean] | 215
CUGGGUUGACGAAAAGUCAACAAAUGAGAAGGAGCGCACGAAAGUGCAGGUAGGUCGCUCAAUCCAGUGAUGUUGGGUCAUCCAG [#SwitchBubble 13 #K4Late] | 993
GAUUUAGAGGCGGCCGCCACUAGUGAUGUUAGUGAUGUUUGAUACGGAAUAUAUCUGCGAGUAGAUAGGACCGGGCCAGAUGGAG [rttrbmullin] | 170

###

tested on: MS2 coat protein; assay: apparent KD of MS2 coat protein; designed switch direction (-1 OFF switch, 1 ON switch): 1; higher = weaker reporter binding; conditions: Eterna round: R95; input ligand: microRNA oligo, concentration not stated
// Not met strictly below 30 nM in apparent KD of MS2 coat protein; Met otherwise

CONSTRUCT SEQUENCE | GROUP
GAUAAACAUGAGGAUCACCCAUGUAAUAAUAUGGGAGGAUAUCAGAAUGUAUGUAUGUAAUGAGAAGGCCUAAUAG [Mat - Same State 1 - Mod of Eli - D72] (puzzle: Same State 1) | Met
AGUCCAGCCUGAGCUGGACAAAAGCAUGUACAUGAGGAUCACCCAUGUUCAUGUAUAAGCUUUUUGCUCGUCUUAAA [Zipper 52 - 11] (puzzle: Sensor for hsa-mir-208a) | Not met
ACAAGCUUUUUGCUCGUCUUCAUGUAAUAACAUGAGGAUCACCCAUGUAACGUUAAAAGUCUCUCGAUAAUAGCUCA [Meechl hsa-mir-208a 1] (puzzle: Sensor for hsa-mir-208a) | Met
AGUCCAGCCUGAGCUGGACAAAAGCAUGUACAUGAGGAUCACCCAUGUUCAUGUACAAGCUUUUUGCUCGUCUUAUC [salish99_208a_r3_058] (puzzle: Sensor for hsa-mir-208a) | Not met
GUAUCUACAGGUUUUUUAGCUCGUCUGAUACAUGAGGAUCACCCAUGUUAUAGCCCUGUGCUUGCGCAGGGCUGAGG [Sensor for hsa-mir-208a ( MOD of Tearor v.4 )] (puzzle: Sensor for hsa-mir-208a) | Met

###

# apparent KD of MS2 coat protein per entry
tested on: MS2 coat protein; assay: apparent KD of MS2 coat protein; higher = weaker reporter binding; conditions: Eterna round: R107; input ligand: theophylline 20 uM

CONSTRUCT SEQUENCE | apparent KD of MS2 coat protein [nM]
AACAUGAGGAUCACCCAUGUGUCCUCGAAACGAGGACCGGUACGGCCGCCACUCGAAUAAGGUGUUGACGAAAAGUCAGCACCAA [Mat - Exclusion - Trytophan A - D17] | 314
GGCGUGGUCGGAAGGAGCGACAUGAGGAUCACCCAUGUCUCCCGUUAUGGGAGUUCCUUAGGUCAGGUAGGUCGCCGACUGCGGC [#1 Exclusion - Arginine B Attempt #22 (Inspired by Omei)] | 123
GAGUCCGCGGCGGCCGCCACUCGCGGCGCCACAUGGCGCCGGGACAUGAGGAUCACCCAUGUCCCGAGGACCGGGCCGAUCCUCA [Same State Typrtophan B GF4] | 35.6
AACCGAGGCUAUCCUCUAAGACUAUGUGAUACCAGAAUAAUUUUAUUCCCUUGGCAGCAUGACAUGAGGAUCACCCAUGUCUCUU [SSTheo A #8] | 27.4
AUGUACAUGACGGCCGCCACUACACUGAAAGUGGUCCAGAACAUGAGGAUCACCCAUGUAUCAAGUAGGACCGGGUCAUGUACAU [Tryp B Ex t5] | 425
UUCUACAUGAGGAUCACCCAUGUGGGUGAUACCAGCACUUUUUGGUGCCCUUGGCAGCACAUGAGAAUGCCGUAAAAUCGGCGAU [Ceanteis] | 577
GGAUAGAUAGGAGAUACCAGAUACAUAAACAUGAGGAUCACCCAUGUGUCUGCACUAAGUAUCCCUUGGCAGCUCGGAGAUCUGA [#17 Same State - Theophylline B] | 21.7
AUGUAAGUGGUGUCACUGUGGUCUAGUGAUACCAGUAUCGAAAGAUACCCUUGGCAGCGCUAGAACAUGAGGAUCACCCAUGUUU [#24 Exclusion-TheophyllineA] | 74.8
AAAAUCCUAUCUGAGGAUCACCCAGGUGAAGGAGCGCCCGAAAGGGCAGGUAGGUCGCACCUGAGGAUCACCCUGGUAAACCUAA [ArgEX 21 #DoubleMS2 #OpenEnded] | 76.3
GUGUUAUGCUCGGCCGCCACUCUGACAUGAGGAUCACCCAUGUUGUACAUGAGGAUCACCCAUGUGAGGACCGGGAGAAACACGA [Exclusion Tryptophan B GF9] | 191
AGCGACAUGCGUGAUACCAGCUACAUGAGGAUCACCCAUGUCAGUAGGAAACUGCUGUGUAGCCCUUGGCAGCACAGUGCAUGUC [Exclusion - Theophylline B (Freestyle 27)] | 47.5
AAGUAAACAUGAGCAAAGCUCAUGUGCGAAGGAGCGGCGGAAACGCCAGGUAGGUCGCGCACAUGAGCAUCAGCCAUGUGUGUCA [Omei Arginine B SS A v1] | 89.8
UAUCGUCAGACGGCCGCCACUAGUACAUGAGGAUCACCCAUGUAGGUCCUAGAUUCCUCAUGAUCUAGGACCGGGUCUGACGAAU [(Trp1)-(Ms2)-(T)'-(M)'-(Trp2)_Design16] | 61.5
GUGUGGCGCUCGGCCGCCACUCAGACAUGAGGAUCACCCAUGUAGAACAUGAGGAUCACCCAUGUGAGGACCGGGAGACACACGA [Exclusion Tryptophan B GF11] | 288
UAACAUGAGGAUCACCCAUGUAUACUAAGUCGAGGACCGGUACGGCCGCCACUCGAACUUCAAGAAUAGGCGGUAAAUGUAAGUA [JR_ExcTryptoA_Sub020] | 16.5
AGGACGGCCGGAAGGAGCGGUACAUGAGGAUCACCCAUGUACCUCUGGGCAUCCGUAGUGUGCCAGGUAGGUCGCCGGUUGCGGG [Veatgema] | 14.5
GACGCAUGAGUUGUAAAAGCUCAUGGGUCGCGAGGACCGGUACGGCCGCCACUCGGCUGUACAUGAGGAUCACCCAUGUCAGGGU [#1 Same State - Tryptophan A Attempt #28 (HarryS)] | 434
AUAAUAAAGACGGCCGCCACUAUAAACAUGAGGAACAUGAGGAUCACCCAUGUAUGAGGAUCACCUAGGACCGGGUCAAAUAUUA [AstrosExyTryB#3] | 70.1
ACCGCGGUAUCGGCCGCCACUUGUGGGUUAAAUCUGGUACAUGAGGAUCACCCAUGUGUCUCCUCGAGGACCGGGAUAGCGUGAC [Geaner] | 168
ACAUGAGGAUCACCCAUGUGUGUAAAUCCUCGAGGACCGGUACGGCCGCCACUCGAUUGAGUGUAAGUUGAAUGUAACAUUCAAC [whbob_SS_trypto A_2s9] | 134
GGCACAUAGUCGGCCGCCACUACUAACACCUCAGACAACAUGAGGAUCACCCAUGUUCCAGAGUGUAGGACCGGGACUAUGUGCC [Minonka] | 13.7
GGGUAUGAUCCGGAUACCAGCGAACAUGAGGAUCACCCAUGUGACCUAAGAUAGGCUCUACGCCCUUGGCAGCCGCGAUCGCGUU [Same State Theophylline B GF8] | 32
ACAUGAGGAUCACCCAUGUGAAGGCACGAUACCAGCUGAUCCCGUGGCCCUUGGCAGCGUCCGGUUUGGUCCGGCGGAUGAGACG [azamullin] | 36.4
